- Test system: Clupeidae
- ASSAY SUMMARY: Binding affinity to Herring sperm DNA assessed as melting temperature by differential scanning calorimetric analysis
MEASUREMENT TYPE: Tm (°C)

>>> reported("CC(C)[C@H]1C(=O)NC[C@@H](NC(=O)c2nc3ccccc3cc2O)C(=O)N2CCCC[C@H]2C(=O)NCC(=O)N(C)CC(=O)N(C)[C@@H]([C@H](C)OC(C)(C)C)C(=O)NC[C@@H](NC(=O)c2nc3ccccc3cc2O)C(=O)N2CCCC[C@H]2C(=O)NCC(=O)N(C)CC(=O)N1C")
88
>>> reported("CC(C)[C@H]1C(=O)OC[C@@H](NC(=O)c2nc3ccccc3cc2O)C(=O)N2CCCC[C@H]2C(=O)NCC(=O)N(C)CC(=O)N(C)[C@@H](C(C)C)C(=O)OC[C@@H](NC(=O)c2nc3ccccc3cc2O)C(=O)N2CCCC[C@H]2C(=O)NCC(=O)N(C)CC(=O)N1C")
102
>>> reported("CC(C)[C@H]1C(=O)NC[C@@H](NC(=O)c2nc3ccccc3cc2O)C(=O)N2CCCC[C@H]2C(=O)NCC(=O)N(C)CC(=O)N(C)[C@@H]([C@@H](C)O)C(=O)NC[C@@H](NC(=O)c2nc3ccccc3cc2O)C(=O)N2CCCC[C@H]2C(=O)NCC(=O)N(C)CC(=O)N1C")
86
>>> reported("CC(C)[C@H]1C(=O)NC[C@@H](NC(=O)c2nc3ccccc3cc2O)C(=O)N2CCCC[C@H]2C(=O)NCC(=O)N(C)CC(=O)N(C)[C@@H](C(C)C)C(=O)NC[C@@H](NC(=O)c2nc3ccccc3cc2O)C(=O)N2CCCC[C@H]2C(=O)NCC(=O)N(C)CC(=O)N1C")
88
>>> reported("CN1CC(=O)N2CCCC[C@H]2C(=O)NC[C@@H](NC(=O)c2nc3ccccc3cc2O)C(=O)N2CCCC[C@H]2C(=O)NCC(=O)N(C)CC(=O)N2CCCC[C@H]2C(=O)NC[C@@H](NC(=O)c2nc3ccccc3cc2O)C(=O)N2CCCC[C@H]2C(=O)NCC1=O")
97

###

- ASSAY SUMMARY: Retention time of the compound by HPLC analysis
- Assay type: physicochemical
MEASUREMENT TYPE: Retention_time (min)

>>> reported("CC(C)[C@H]1C(=O)NC[C@@H](NC(=O)c2nc3ccccc3cc2O)C(=O)N2CCCC[C@H]2C(=O)NCC(=O)N(C)CC(=O)N(C)[C@@H](c2ccccc2)C(=O)NC[C@@H](NC(=O)c2nc3ccccc3cc2O)C(=O)N2CCCC[C@H]2C(=O)NCC(=O)N(C)CC(=O)N1C")
17.2
>>> reported("CC(C)[C@@H]1NC(=O)CN(C)C(=O)CNC(=O)[C@@H]2CCCCN2C(=O)[C@H](NC(=O)c2nc3ccccc3cc2O)CNC(=O)[C@H](C(C)C)NC(=O)CN(C)C(=O)CNC(=O)[C@@H]2CCCCN2C(=O)[C@H](NC(=O)c2nc3ccccc3cc2O)CNC1=O")
14.6
>>> reported("CN1CC(=O)N2CCCCC[C@H]2C(=O)NC[C@@H](NC(=O)c2nc3ccccc3cc2O)C(=O)N2CCCC[C@H]2C(=O)NCC(=O)N(C)CC(=O)N2CCCCC[C@H]2C(=O)NC[C@@H](NC(=O)c2nc3ccccc3cc2O)C(=O)N2CCCC[C@H]2C(=O)NCC1=O")
15.8
>>> reported("CC[C@H](C)[C@H]1C(=O)N[C@H](C)[C@@H](NC(=O)c2nc3ccccc3cc2O)C(=O)N2CCCC[C@H]2C(=O)NCC(=O)N(C)CC(=O)N(C)[C@@H]([C@@H](C)CC)C(=O)N[C@H](C)[C@@H](NC(=O)c2nc3ccccc3cc2O)C(=O)N2CCCC[C@H]2C(=O)NCC(=O)N(C)CC(=O)N1C")
20.9
